- System: RPMI-8226 leukemia
- procedure.summary: NCI-60 one-dose screen, 48 h (100 = growth as untreated, 0 = no growth, -100 = all killed)
- conditions.used: 10 µM unless noted
The panel holds about 83,000 compounds, 20% with a hit somewhere; the sample as a whole holds those more often.
I'd appreciate it if you could supply growth values for the items below.
Express it in %; write the number only.

Form field - read-out: growth; system: RPMI-8226 leukemia; submitted item: "O=C(Nc1nc(-c2ccc(Cl)cc2)cs1)c1cc(O)c(O)c(O)c1"
17.1

What do you get for "O=C(C=C=Nc1ccccc1)C(=O)N=C=Cc1ccccc1" ?
-59.5

What do you get for "O=C(Nc1ccc(OCc2nnc(-c3ccccc3)o2)c(F)c1)Nc1ccc(Cl)c(C(F)(F)F)c1" ?
-21

What do you get for "NC(=O)c1ncn([C@@H]2O[C@H](CO)[C@@H](O)[C@H]2O)n1" ?
87.2

What do you get for "CCN(CC)CCNc1ccc(Cl)cc1Cl" ?
109

What do you get for ClC1C2CC(c3ccccc32)C1Cl (stereo not given) ?
97.6

What do you get for C=C1CC[C@@H]2[C@](C)(COC(C)=O)[C@H](OC(C)=O)CC[C@@]2(C)[C@@H]1CC(Nc1ccc(S(=O)(=O)Nc2cc(C)on2)cc1)C1=CCOC1=O (stereo not given in full) ?
-15.2

What do you get for "Nc1cc(Cl)c(S(N)(=O)=O)cc1S(N)(=O)=O" ?
122

What do you get for COc1cc(C2NC(c3ccc(Cl)cc3)C(C)/C(=N/NC(N)=S)C2C)cc(OC)c1OC (stereo not given) ?
74.2

What do you get for "c1csc([C@@H]2C[C@@H]3Cc4ccc5ccccc5c4N2O3)c1" ?
95.5

----------
I'd appreciate it if you could supply growth values for the items below.
- System: A549/ATCC NSCLC
- procedure.summary: NCI-60 one-dose screen, 48 h (100 = growth as untreated, 0 = no growth, -100 = all killed)
- conditions.used: 10 µM unless noted
About 83,000 compounds went through this panel and 20% of them were active in at least one assay; those are over-represented in the sample as a whole.
Express it in %; write the number only.

GET /values?readout=growth&item= "NCCCc1nnc(CCC(=O)c2nc3ccccc3[nH]2)o1"
106

What do you get for ClC1C2CC(c3ccccc32)C1Cl (centres undefined) ?
110

What do you get for "c1cnc2ccc3ncccc3c2c1" ?
90.2

What do you get for "c1ccc2c(c1)[nH]c1c2cc[n+]2cc3c(cc12)CCCC3" ?
64

What do you get for "Cn1cc(-c2csc(-c3cn(C)c4ncccc34)n2)c2cc(Br)cnc21" ?
87

What do you get for "c1ccc(-c2nnc(Nc3nnc(-c4ccccc4)s3)s2)cc1" ?
103

What do you get for "CCC(CC)NCCCCCNc1cc(OC)cc2cccnc12" ?
96.1

What do you get for "CCCCCCCC/C=C\CCCCCCCCOc1ccccc1CC(=O)NCC[N+]1(C)CCCC1" ?
75

What do you get for "CC1(C)OC(=O)C(=Cc2ccccc2Br)C(=O)O1" ?
103

What do you get for "CCSc1nnc2n(Cc3ccccc3)c(=O)c3c(C)c(C(N)=O)sc3n12" ?
97

What do you get for "COc1cccc2c1O/C(=C\c1c([N+](=O)[O-])ncn1C)C2=O" ?
99.8

What do you get for "COc1ccc(C(=O)/C=C/c2c(Cl)nc3c(c(C)nn3-c3ccccc3)c2-c2ccc(Br)cc2)cc1" ?
104

What do you get for NNC(=O)C1CC2c3ccccc3C1c1ccccc12 (centres undefined) ?
113

What do you get for "O=C1c2nsnc2C(=O)c2c(F)c(F)c(F)c(F)c21" ?
-27.9

What do you get for "N#Cc1c(N2CCOCC2)nc2sc3cc(Cl)ccc3n2c1=N" ?
102

What do you get for "COc1c(O)cc2oc3cc(O)c(CC=C(C)C)c(O)c3c(=O)c2c1C/C=C(\C)CCC=C(C)C" ?
45.1

What do you get for "COc1ccc2nc(NC(=O)c3cc(-c4ccc(F)cc4)n4nc(-c5ccccc5)cc4n3)sc2c1" ?
77.1

What do you get for "CCC(C)(C)C(=O)O[C@H]1C[C@@H](C)C=C2C=C[C@H](C)[C@H](CC[C@@H]3C[C@@H](O)CC(=O)O3)[C@H]21" ?
67.5

What do you get for "COc1ccc(-n2nnc(C(=O)O)c2-c2cc(OC)c(OC)c(OC)c2)cc1" ?
100

What do you get for COc1cc([C@@H]2c3cc4c(cc3C(O[C@@H]3O[C@@H]5CO[C@@H](c6cccs6)OC5[C@H](O)[C@H]3O)C3COC(=O)[C@@H]32)OCO4)cc(OC)c1O (some centres undefined) ?
-48.3

What do you get for "Fc1ccc(-c2nnc(/C=C/c3cn(-c4ccccc4)nc3-c3ccccc3)o2)cc1" ?
75.2

What do you get for "O=C1Cc2cc(CCn3cncn3)c(Cl)cc2N1" ?
59.8

What do you get for CC(NC(=O)C(C)Oc1ccc(Cl)cc1Cl)C(=O)O (centres undefined) ?
116

What do you get for CC(c1ccccn1)C(C)(O)C(C)c1ccccn1 (centres undefined) ?
106

What do you get for "CC(c1cc(Cl)ccc1O)c1cc(Cl)ccc1O" ?
29.3

What do you get for COc1cccc(C2C(C#N)=C(N)Oc3cc(OC)ccc32)c1 (centres undefined) ?
15.6

What do you get for CCn1c2c(c3ccccc31)SC1c3cccn3CCN1C2=S (centres undefined) ?
88.5

What do you get for "Clc1ccc(-c2nc(-c3cccs3)no2)c(Cl)c1" ?
91.4

What do you get for "CC1=CSC2=NCCN12" ?
105

What do you get for "CC(C)[O-].CC(C)[O-].CN(CCN(C)Cc1cc(F)cc(F)c1[O-])Cc1cc(F)cc(F)c1[O-].[Ti+4]" ?
2.03

What do you get for "N#Cc1ccc(NC(=O)Nc2ccc(Oc3ccc(NC(=O)Nc4ccc(C#N)cc4)cc3)cc2)cc1" ?
26.9

What do you get for CCC(C)CC(CC)NCCN1CCN(C(CC)CC(C)CC)C1=S (centres undefined) ?
50.2

What do you get for CC12CCC3C(CCC4CC(=O)/C(=C\O)CC43C)C1CCC(=O)O2 (centres undefined) ?
106

What do you get for CSc1nc2c(c(=O)[nH]1)C(c1ccc(Cl)cc1)C1=C(N2)/C(=C/c2ccc(Cl)cc2)CNC1 (centres undefined) ?
32.2

What do you get for "Oc1ccccc1/C=N\Nc1ccccc1" ?
36.8

What do you get for Oc1ccc(Cc2ccc(O)c(C3CC(c4ccc(Cl)cc4)=NN3)c2)cc1C1CC(c2ccc(Cl)cc2)=NN1 (centres undefined) ?
14.7

What do you get for "O=C(CCc1nnc2sc(-c3ccc(Cl)cc3Cl)nn12)c1nc2ccccc2[nH]1" ?
-46.1

What do you get for CC(=O)Oc1ccc(C23c4ccccc4C2(OC(C)=O)c2cc(OC(C)=O)ccc23)cc1 (centres undefined) ?
97

What do you get for "CN=C(NC)N/N=C(C)\C=N\NC(=NC)NC" ?
100

What do you get for O=C(/C=C/c1ccccc1)CC(c1ccccc1)N1CCOCC1 (centres undefined) ?
63

What do you get for "NC(=O)c1ncn([C@@H]2O[C@H](CO)[C@@H](O)[C@H]2O)n1" ?
91.2

What do you get for COc1cc2c(cc1OC)C1CCN3C(=O)CCC3N1CC2 (centres undefined) ?
113

What do you get for "Cc1nn(-c2ccc(Cl)cc2)c2nc3c(nc12)C(=O)c1ccccc1-3" ?
55.8

What do you get for "COc1ccc2nccc(/C=C/c3ccnc4ccc(OC)cc34)c2c1" ?
66.1

src = PubChem BioAssay (NCI)
